Below: a set of entries, each annotated with reported Min cell viability %, HEK293/H_LIV-1.
Measurement target: T1, human LIV-1 (human, UniProt Q13433 29-755)
T1 sequence (looked up): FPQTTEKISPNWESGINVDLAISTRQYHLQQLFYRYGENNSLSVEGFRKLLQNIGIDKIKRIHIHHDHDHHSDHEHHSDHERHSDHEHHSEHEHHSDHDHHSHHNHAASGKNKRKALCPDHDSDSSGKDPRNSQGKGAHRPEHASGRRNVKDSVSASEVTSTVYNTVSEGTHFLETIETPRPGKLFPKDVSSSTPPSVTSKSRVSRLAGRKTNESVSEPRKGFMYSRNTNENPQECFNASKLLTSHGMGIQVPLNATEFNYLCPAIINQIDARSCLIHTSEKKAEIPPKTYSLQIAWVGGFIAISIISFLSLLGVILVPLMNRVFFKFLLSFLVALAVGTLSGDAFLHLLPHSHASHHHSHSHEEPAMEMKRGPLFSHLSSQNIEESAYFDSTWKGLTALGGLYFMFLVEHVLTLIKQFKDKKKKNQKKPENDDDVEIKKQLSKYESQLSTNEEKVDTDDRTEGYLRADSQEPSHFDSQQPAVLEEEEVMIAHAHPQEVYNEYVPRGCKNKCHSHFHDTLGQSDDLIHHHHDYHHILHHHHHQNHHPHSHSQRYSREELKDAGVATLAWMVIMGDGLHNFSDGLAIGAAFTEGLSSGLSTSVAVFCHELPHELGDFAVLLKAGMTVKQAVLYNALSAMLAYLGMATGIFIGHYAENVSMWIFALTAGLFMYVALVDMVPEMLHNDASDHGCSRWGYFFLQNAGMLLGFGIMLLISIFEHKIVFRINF
Assay summary: cell-based or functional assay
Quantity measured: Min cell viability %, HEK293/H_LIV-1 (%)

# Binder, Assay value
data = [
    ("5D6B10.z7-MMAE (antibody, V domains shown, MMAE drug moiety conjugated; site and chain not stated, Antibody-drug conjugate of 5D6B10.z7; human gamma 1/kappa) VH: QVQLVQSGGGVVQPGRSLRLSCTVSGFSLTTYGIHWVRQSPGKGLEWLGVIWTGGTTDYNAAFISRLTISKDNSKSTVYFQMNSLQAEDTAIYYCARGPSSYWGQGTLVTVSS VL: EIVMTQSPATLSVSPGERATLSCKASQNVDTNVVWYQQKPGQSPRALIYSASYRYSGVPARFSGSGSGTEFTLTISSLQSEDFAVYFCQQYNNYPWTFGQGTKVEIK", 15),
    ("124H4D11.p2.z4-MMAE (antibody, V domains shown, MMAE drug moiety conjugated; site and chain not stated, Antibody-drug conjugate of 124H4D11.p2.z4; human gamma 1/kappa) VH: QVQLVQSGAEVVKPGASVKVSCKASGFNIKDYYMHWVRQAPGQGLEWIGWIDPENDDTEYDPKFQGRVTMTADTSTSTVYMELSSLRSEDTAVYYCAARYYAFDYWGQGTMVTVSS VL: DVLMTQSPLSLPVTLGQPASISCRSSQSIVHSNANTYLEWYLQRPGQSPRLLIYKVSNRFSGVPDRFSGSGSGTDFTLKISRVEAEDVGVYYCFQGSQVPPTFGQGTKLEIK", 15.8),
]

The measured values listed here are drawn from patent US20240325555A1.
